test: Accelerated stability of flavor components in peroxide mouthrinse, measured by gas chromatography; assay type: physicochemical; settings: Formula IB, no radical scavenger, not treated to remove metals; 40° C., 75% RH; component at 0.005%
observation_type: % Reduction at day 31, Formula IB (%)
# value in %; strip the unit string

Sample records with % Reduction at day 31, Formula IB:
CC=Cc1ccc(OC)cc1
100
CCCC(=O)OCC [Ethylbutyrate]
20
CCCCCCCCCC=O
80
C=C(C)[C@H]1CC=C(C)CC1
100

# context switch: different compound, same % Reduction at day 31, Formula IB
Task item: # query: % Reduction at day 31, Formula IB of entry C=C(C)C1CC=C(C)C(=O)C1 (centres unmarked)
Reply: 20

Every entry's value here was drawn from patent US20080175801A1.
